B1: HDV Ribozyme (parent)
chain: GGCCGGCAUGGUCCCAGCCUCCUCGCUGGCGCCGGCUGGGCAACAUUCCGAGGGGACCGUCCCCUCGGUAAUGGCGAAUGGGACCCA

Variants of: B1
Assay: self-cleavage, relative activity (ratio to wild type); higher = more cleavage; co-transcriptional
Please respond with reported self-cleavage for every item in the list.

[Q] Item under review: U23G G80C . Reported self-cleavage?
[A] 0.147

[Q] Moving on to C58G C64G
[A] 0.853

[Q] Try this variant next: C19U C64U
[A] 0.148

[Q] Same question for C3G C86A please.
[A] 0.876

[Q] Now give it for C15U C66G too.
[A] 0.831

[Q] # iterate: U20G C24A
[A] 0.17

[Q] Same again, this time with A16U G54U
[A] 0.771

[Q] # iterate: G54U A87G
[A] 0.933

[Q] Let us now turn to U37C U79A
[A] 0.554

[Q] Would you kindly repeat that for C4G U69A ?
[A] 0.192

[Q] Same thing, different variant: G59U C62U
[A] 1.07

[Q] Try this variant too: G25C C64U
[A] 0.0369

[Q] Also, C15U U37C please.
[A] 0.923

[Q] Then what about the variant G40A G68C ?
[A] 0.794

[Q] Entry G68C G73U please
[A] 0.158

[Q] Another variant to look at: C14A C85U
[A] 0.724

[Q] Can you handle C21U A43G next?
[A] 0.0898

[Q] Can you check C64G G68U next?
[A] 0.136

[Q] Same question for C18A C41G please.
[A] 0.0554

[Q] Check G52C U69G too.
[A] 0.914

[Q] Record: C44U A51G
[A] 1.04

[Q] Also G17C C63G ?
[A] 0.244

[Q] Another: U27C C48G
[A] 0.831

[Q] Now this one: G59U G74U
[A] 0.502

[Q] Can you handle C21A G35A next?
[A] 0.0804

[Q] Also check U27C G40U
[A] 0.7

[Q] Same lookup for G1C G31C , please.
[A] 0

[Q] Lookup C26A G76U
[A] 1.05

[Q] Also check U27C A51C
[A] 0.858

[Q] Then what about the variant A43C A51U ?
[A] 0.324
